biological target: SaHPPK (Staphylococcus aureus); assay: Surface plasmon resonance (SPR) with biotinylated SaHPPK on NeutrAvidin chip; format: binding; conditions: SPR, from k d/k a ratio; read-out: K d from kinetic interaction model
readout: Kd (µM)
Write the value in µM as a bare number.

Quick check: Kd on SaHPPK (Staphylococcus aureus), item Nc1ncnc2c1ncn2C1OC(COP(=O)(O)CP(=O)(O)OP(=O)(O)O)C(O)C1O (stereo not drawn) [AMPCPP, α,β-methylene adenosine 5′-triphosphate] ?
5.4

###

experiment: Solubility estimated from ITC experiments; format: physicochemical; conditions: ITC buffer, estimated assuming 1:1 binding stoichiometry
readout: solubility

Return reported solubility; argument: Nc1nc2nc(S)[nH]c2c(=O)[nH]1
~300 µM

###

target: UniProt A0A0H3JXR3; experiment: Surface plasmon resonance (SPR) with biotinylated SaHPPK on NeutrAvidin chip; format: binding; details: SPR steady-state, 293 K, ligand alone; read-out: K d SPR
readout: Kd (µM)
Write the value in µM as a bare number.

Nc1nc2nc(S)[nH]c2c(=O)[nH]1: 10.8
Nc1ncnc2c1ncn2C1OC(COP(=O)(O)CP(=O)(O)OP(=O)(O)O)C(O)C1O (stereo not drawn) [AMPCPP, α,β-methylene adenosine 5′-triphosphate]: 7.7
Nc1ncnc2c1ncn2[C@@H]1O[C@H](COP(=O)(O)O)[C@@H](O)[C@H]1O: 4900

Below: the item to evaluate.
Return reported Kd; argument: Nc1ncnc2c1ncn2[C@@H]1O[C@H](COP(=O)(O)OP(=O)(O)O)[C@@H](O)[C@H]1O
760

###

Recorded pKd values for a group of compounds are listed next.
target: SaHPPK (Staphylococcus aureus, UniProt A0A0H3JXR3); experiment: biochemical; format: binding; conditions: ITC, 298 K, ligand alone; read-out: K d ITC
Sequence (A0A0H3JXR3 entry or part of it): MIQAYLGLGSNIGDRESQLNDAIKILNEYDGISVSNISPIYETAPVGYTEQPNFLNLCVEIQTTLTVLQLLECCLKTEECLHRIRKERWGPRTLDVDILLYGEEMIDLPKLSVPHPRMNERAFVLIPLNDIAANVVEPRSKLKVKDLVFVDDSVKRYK
pKd (log units): -log10 of the concentration in mol/L.

Return reported pKd; argument: Nc1ncnc2c1ncn2[C@@H]1O[C@H](COP(=O)(O)OP(=O)(O)OP(=O)(O)O)[C@@H](O)[C@H]1O
4.51

Return reported pKd; argument: Nc1nc2nc(S)[nH]c2c(=O)[nH]1
4.89

Return reported pKd; argument: Nc1ncnc2c1ncn2C1OC(COP(=O)(O)CP(=O)(O)OP(=O)(O)O)C(O)C1O (stereo not drawn) [AMPCPP, α,β-methylene adenosine 5′-triphosphate]
5.51
